I'd appreciate it if you could supply growth values for the items below.
System: SN12C renal
assay-name: NCI-60 one-dose screen, 48 h (100 = growth as untreated, 0 = no growth, -100 = all killed)
study-conditions: 10 µM unless noted
About 83,000 compounds went through this panel and 20% of them were active in at least one assay; those are over-represented in the sample as a whole. Activity calls are given as the source filed them. How the source made its calls: active means growth percent below 10; inactive means the rest.

In the examples that follow, each entry is paired with its recorded growth.
| compound | growth |
| --- | --- |
| COc1cc(C(=O)Nc2cc(O)c(CC=C(C)C)c(O)c2)cc2c1O[C@]1(C)CC[C@@H](O)C(C)(C)[C@H]1C2 | 64.6% (inactive) |
| CC(C)n1nc(C#Cc2cccc(NC(=O)c3cccc(C(F)(F)F)c3)c2)c2c(N)ncnc21 | -8.6% (active) |
| O=c1ccn(C2OC(F)(CO)C(O)C2F)c(=O)[nH]1 (stereo not given) | 102% (inactive) |

Please give growth for each item listed below.
1. NC(=O)c1c(NC(=O)c2ccccn2)sc2c1CCC(=O)C2
2. C/C(=N\NC(N)=S)c1nc2ccc(Cl)cc2[nH]1
3. CCC(O)(C(c1ccccc1)c1ccccn1)C(c1ccccc1)c1ccccn1 (stereo not given)
4. O=C1c2cccc3c(-c4ccc(-c5nc6c7ccccc7c7ccccc7c6[nH]5)cc4)ccc(c23)C(=O)N1CCN1CCNCC1
5. COc1cccc(CCC2CCCN(c3cc(C)nc(N)n3)C2)c1 (stereo not given)
6. CCO/C=N/C1=C(C#N)C(c2ccc(OC)cc2)c2c(c3ccccc3n(C)c2=O)O1 (stereo not given)

1. 25.9% (inactive)
2. 48.5% (inactive)
3. 110% (inactive)
4. 93.4% (inactive)
5. 34.1% (inactive)
6. 98.9% (inactive)

Name the recorded growth for COc1ccc(/C(C)=C(\c2ccc(Cl)cc2)c2ccc(OCCN3CCCCCC3)cc2)cc1F .
57.4% (inactive)
